experiment: Rat abraded skin model, skin penetration (plasma levels) following dermal administration; format: in vivo; settings: abraded skin, samples at 2, 4, 24 and 72 hours
readout: plasma levels (PK analysis)

COc1cnc(-c2ccc(Cn3c(CC(C)(C)C(=O)O)c(SC(C)(C)C)c4cc(OC[C@@H]5Cc6ccccc6N5C(C)=O)ccc43)cc2)nc1
measurable plasma levels
CC(C)(C)Sc1c(CC(C)(C)C(=O)O)n(Cc2ccc(-c3ccc(F)cn3)cc2)c2ccc(OCc3ccccn3)cc12
measurable plasma levels
CC(C)(C)Sc1c(CC(C)(C)C(=O)O)n(Cc2ccc(-c3ccc(F)cn3)cc2)c2ccc(OCc3ccc4ccccc4n3)cc12
measurable plasma levels
